Target: UniProtKB P43220
Sequence (P43220 whole entry): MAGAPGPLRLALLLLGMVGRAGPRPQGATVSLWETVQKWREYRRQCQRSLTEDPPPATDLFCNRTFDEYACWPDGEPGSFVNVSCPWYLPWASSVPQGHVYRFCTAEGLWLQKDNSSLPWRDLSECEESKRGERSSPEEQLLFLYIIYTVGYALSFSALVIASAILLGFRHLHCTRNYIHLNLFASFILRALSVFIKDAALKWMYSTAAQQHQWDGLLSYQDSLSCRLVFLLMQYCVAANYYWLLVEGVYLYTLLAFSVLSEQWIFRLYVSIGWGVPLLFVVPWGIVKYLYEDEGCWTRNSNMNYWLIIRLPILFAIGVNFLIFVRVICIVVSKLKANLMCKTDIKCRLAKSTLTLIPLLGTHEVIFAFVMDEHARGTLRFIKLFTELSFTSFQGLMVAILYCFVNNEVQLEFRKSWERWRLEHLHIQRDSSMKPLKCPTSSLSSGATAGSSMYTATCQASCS
Test: Binding affinity to GLP-1R (unknown origin) at 5000 nM measured at 30 to 120 mins by HTRF analysis relative to control
Details: filed as agonist, time 30-120 min
# reported Activity; entries follow
Answer in %, number only, no unit symbol.

Ask: Recorded Activity for N#Cc1ccc(COc2cccc(C3CCN(Cc4nc5ccc(C(=O)O)cc5n4C[C@@H]4CCO4)CC3)n2)c(F)c1 , please?
Result: 81.9

Ask: Recorded Activity for COc1cc(C(=O)O)cc2c1nc(CN1CC=C(c3cccc(OCc4ccc(C5CC(F)(F)C5)cc4F)n3)CC1)n2C[C@@H]1CCO1 , please?
Result: 92.3

Ask: Recorded Activity for O=C(O)c1cc(F)c2nc(CN3CC=C(c4cccc(OCc5ccc(C6CC(F)(F)C6)cc5F)n4)CC3)n(C[C@@H]3CCO3)c2c1 , please?
Result: 82.2

Ask: Recorded Activity for O=C(O)c1ccc2nc(Cc3ccc(-c4cccc(OCc5ccc(C6CC(F)(F)C6)cc5F)n4)cc3)n(C[C@@H]3CCO3)c2c1 , please?
Result: 73.5

Ask: Recorded Activity for O=C(O)c1ccc2nc(CN3CCN(c4cccc(OCc5ccc(C6CC(F)(F)C6)cc5F)n4)CC3)n(C[C@@H]3CCO3)c2c1 , please?
Result: 66.6

Ask: Recorded Activity for O=C(O)c1ccc2nc(CN3CC=C(c4cccc(OCc5ccc(C6CC(F)(F)C6)cc5F)n4)CC3)n(C[C@@H]3CCO3)c2c1 , please?
Result: 88.9

Ask: Recorded Activity for O=C(O)c1ccc2nc(CN3CC=C(c4cccc(OCc5ccc(C6CC(F)(F)C6)cc5F)n4)CC3)n(C[C@@H]3CCO3)c2n1 , please?
Result: 71.2
